Origin of the recorded values: paper PMC9352680

- assaySystem: T1, PUF4 RNA-binding domain (Saccharomyces cerevisiae, UniProt P25339 537-888)
- T1 sequence: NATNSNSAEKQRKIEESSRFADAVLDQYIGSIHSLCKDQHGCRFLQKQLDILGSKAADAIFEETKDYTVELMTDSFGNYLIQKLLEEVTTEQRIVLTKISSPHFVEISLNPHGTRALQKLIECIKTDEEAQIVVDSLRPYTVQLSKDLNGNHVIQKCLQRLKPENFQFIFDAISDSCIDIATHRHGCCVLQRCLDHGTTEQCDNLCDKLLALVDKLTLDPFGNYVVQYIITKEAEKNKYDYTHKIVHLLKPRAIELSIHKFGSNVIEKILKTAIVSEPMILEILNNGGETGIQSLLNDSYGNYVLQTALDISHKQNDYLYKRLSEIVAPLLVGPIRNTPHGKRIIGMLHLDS
- assayComment: Mg; RNA-MaP; 20 mM Na-HEPES pH 7.4, 30 mM KOAc, 0.75 mM MgCl2, 0.1% Tween-20, 5% glycerol, 0.1 mg/mL BSA, 2 mM DTT; 25 C; 0.0125-409.6 nM protein
- conditionLabel: tags: N-His6-TEV cleaved; C-SNAP kept, Cy3B-labelled; label: tethered on chip by stalled RNA polymerase
Hi! Could you tag entries with Kd below 200 nM as met, and those at or above as not met? Much appreciated.

Dear reviewer, please state whether Ib_S4_P4E.1_K4.1_C4.1_H4.1_[T1G]_[A4G]_A4.1_F4.1_T4.1 (ssRNA) RNA: UUUGACAACUGAUCGUUCUUUCUGGUGUAUUAUUCUUUCUCGAUCAGUUGUCUUU has Kd strictly beneath 200 nM.
met

Is 200 nM strictly greater than the binder's reported Kd? binder: Id_ii_S4_P4E.2_K4.1_C4.2_[T-1A]_H4.1_A4.1_F4.1_T4.2_[G10A] (ssRNA) RNA: UUUGACAACUGAUCGUUCUUUCUCAUGUAUAUUAAUUUCUUUCUCGAUCAGUUGUCUUU
met

hey, is Kd for Id_ii_S2_P5E.2_K5.1_C5.2_[T-1G]_H5.1_A5.1_F5.1_T5.2_[T11G]_[A12C] (ssRNA) RNA: UUUGAUUAAUAUGAUAUCGUUCUUUCUCGUGUAUUAUUAGCUUCUUUCUCGAUAUCAUAUUAAUCUUU lower than 200 nM or not?
met

Find out if reported Kd for Ic_S4_P4E.1_K4.1_C4.1_H4.1_A4.1_[T5C]_[T7C]_F4.1_[T8C]_[A9G]_T4.1 (ssRNA) RNA: UUUGACAACUGAUCGUUCUUUCUUGUACACCGUUCUUUCUCGAUCAGUUGUCUUU is less than 200 nM
met

Confirm or reject: Kd of Ib_S2_P4E.1_K4.1_C4.1_H4.1_[A4C]_A4.1_F4.1_[T8C]_T4.1 (ssRNA) RNA: UUUGAUUAAUAUGAUAUCGUUCUUUCUUGUCUAUCAUUCUUUCUCGAUAUCAUAUUAAUCUUU lies strictly below 200 nM
not met

Threshold test, Kd < 200 nM: Id_ii_S2_P5E.3_K5.2_C5.2_[T-1C]_H5.2_A5.1_F5.1_T5.2_[T11A]_[A12G] (ssRNA) RNA: UUUGAUUAAUAUGAUAUCGUUCUUUCUCCUAUAUUAUUAAGUUCUUUCUCGAUAUCAUAUUAAUCUUU
not met

Lab note: Kd threshold 200 nM. Does this binder come in strictly under it? Id_iii_S2_P4E.8_K4.4_C4.3_[C-2T]_H4.1_A4.2_F4.1_T4.2 (ssRNA) RNA: UUUGAUUAAUAUGAUAUCGUUCUUUCUUUUUGUAUUUUAGUUUCUUUCUCGAUAUCAUAUUAAUCUUU
met

# strict comparison: is reported Kd < 200 nM? input = ACAAACGAUAUAUUAUUACAACAAAC (ssRNA) [Id_ii_S3_P5E.3_K5.2_C5.2_[C-2G]_[T-1A]_H5.2_A5.1_F5.1_T5.2_[T11C]]
met

For Id_ii_S2_P3E.3_K3.2_C3.2_[C-2A]_H3.2_A3.1_F3.1_T3.2_[T9C]_[A10C] (ssRNA) RNA: UUUGAUUAAUAUGAUAUCGUUCUUUCUAUUAUAUAUACCUUCUUUCUCGAUAUCAUAUUAAUCUUU , is the recorded Kd below the cut-off of 200 nM?
not met

Just wondering, is Kd of Ib_S2_P4E.1_K4.1_C4.1_H4.1_[T1A]_[G2A]_A4.1_F4.1_T4.1 (ssRNA) RNA: UUUGAUUAAUAUGAUAUCGUUCUUUCUAAUAUAUUAUUCUUUCUCGAUAUCAUAUUAAUCUUU below 200 nM?
not met

Kd under 200 nM? Item: UCUCUUUGUAUCGGUCUCUU (ssRNA) [Ic_S1_P3E.1_K3.1_C3.1_H3.1_A3.1_[A6C]_F3.1_[T7G]_[A8G]_T3.1]
not met

Does UCUCUUCUUAUAUAUAGUUCUCUU (ssRNA) [Id_ii_S1_P3E.3_K3.2_C3.2_H3.2_A3.1_F3.1_T3.2_[T9G]_[A10T]] have Kd strictly under 200 nM?
met

Answer whether the binder Id_ii_S4_P3E.4_K3.3_C3.2_[C-2A]_[T-1A]_H3.3_A3.1_F3.1_T3.2_[T9C] (ssRNA) RNA: UUUGACAACUGAUCGUUCUUUCUAAACACUAUACAUUCUUUCUCGAUCAGUUGUCUUU has Kd strictly less than 200 nM
not met

Find out if reported Kd for Id_ii_S4_P3E.3_K3.2_C3.2_[C-2G]_[T-1G]_H3.2_A3.1_F3.1_T3.2_[A10G] (ssRNA) RNA: UUUGACAACUGAUCGUUCUUUCUGGUAUAUAUAUGUUCUUUCUCGAUCAGUUGUCUUU is less than 200 nM
not met

Threshold test, Kd < 200 nM: Ic_S2_P4E.1_K4.1_C4.1_H4.1_A4.1_[T5C]_[A6G]_[T7A]_F4.1_[T8C]_T4.1 (ssRNA) RNA: UUUGAUUAAUAUGAUAUCGUUCUUUCUUGUACGACAUUCUUUCUCGAUAUCAUAUUAAUCUUU
not met

Lab note: Kd threshold 200 nM. Does this binder come in strictly under it? Ic_S2_P4E.1_K4.1_C4.1_H4.1_A4.1_[A6T]_[T7A]_F4.1_[T8G]_[A9C]_T4.1 (ssRNA) RNA: UUUGAUUAAUAUGAUAUCGUUCUUUCUUGUAUUAGCUUCUUUCUCGAUAUCAUAUUAAUCUUU
not met

I'd appreciate it if you could check whether Ib_S2_P5E.1_K5.1_C5.1_H5.1_A5.1_[T5G]_F5.1_[T8C]_T5.1 (ssRNA) RNA: UUUGAUUAAUAUGAUAUCGUUCUUUCUUGUAGUACUAUUCUUUCUCGAUAUCAUAUUAAUCUUU has Kd smaller than 200 nM.
met

I wonder whether Ib_S4_P5E.1_K5.1_C5.1_H5.1_[T3C]_A5.1_F5.1_[T8A]_T5.1 (ssRNA) RNA: UUUGACAACUGAUCGUUCUUUCUUGCAUUAAUAUUCUUUCUCGAUCAGUUGUCUUU has Kd below 200 nM. Can you tell?
not met

Is it true that Kd reported for ACAAACAUACACUAUUAGAACAAAC (ssRNA) [Id_ii_S3_P4E.4_K4.3_C4.2_[C-2A]_H4.3_A4.1_F4.1_T4.2_[T11A]] is less than 200 nM?
not met

Hi there! Is Kd for UCUCUUCUUAUAUAUUACAUCUCUU (ssRNA) [Id_ii_S1_P4E.3_K4.2_C4.2_H4.2_A4.1_F4.1_T4.2_[G10C]_[T11A]] below 200 nM, do you know?
met

Find out if reported Kd for UCUCUUCGUAUAUAUCUCUU (ssRNA) [Ia_S1_P3E.1_K3.1_C3.1_H3.1_[T1C]_A3.1_F3.1_T3.1] is less than 200 nM
not met

Hi there! Is Kd for UCUCUUGGUAUUUAUCUCUU (ssRNA) [Ib_S1_P3E.1_K3.1_C3.1_H3.1_[T1G]_A3.1_[A6T]_F3.1_T3.1] below 200 nM, do you know?
not met

Could you please tell me whether Kd recorded for UCUCUUUGUAUACAAUCUCUU (ssRNA) [Ib_S1_P4E.1_K4.1_C4.1_H4.1_A4.1_[T7C]_F4.1_[T8A]_T4.1] is less than 200 nM?
met
